// values below are reported Fold change in RNA expression between the ON state and the OFF state
Test system: Renilla luciferase RNA
Assay: Barcoded aptazyme variant library screen: un-cleaved Renilla luciferase RNA by barcode read counts, HEK293-T cells
Assay type: cell-based
Details: un-cleaved Renilla luciferase RNA, HEK293-T cells cultured with 1 mM theophylline (ON) over without theophylline (OFF); barcode read counts, triplicate
Write the number in fold without appending the unit.

In the examples that follow, each entry is paired with its recorded Fold change in RNA expression between the ON state and the OFF state.
* RA055 (nucleic acid, expressed or natural sequence) DNA: GCGCGTCCTGGATTCGCGGCGAGAATACCAGCATCGTCTTGATGCCCTTGGAAGTCTCGAAACGCGTACATCCAGCTGACGAGTCCCAAATAGGACGAAACGCGC | 2.0
* RA160 (nucleic acid, expressed or natural sequence) DNA: GCGCGTCCTGGATTCGCGGAAACGCGTACATCCAGCTGACGAGGGAATACCAGCATCGTCTTGATGCCCTTGGAAGTCCTCCCAAATAGGACGAAACGCGC | 1.3
* RA112 (nucleic acid, expressed or natural sequence) DNA: GCGCGTCCTGGATTCGCGGAAACGCGTACATCCAGGGAATACCAGCATCGTCTTGATGCCCTTGGAAGTCCCTGACGAGTCCCAAATAGGACAAAACGCGC | 1.5

Please examine the following record next.
Return Fold change in RNA expression between the ON state and the OFF state (reported value) for this molecule: RA020 (nucleic acid, expressed or natural sequence) DNA: GCGCGTCCTGGATTCGCGGAAACGCGTACATCGGAATACCAGCATCGTCTTGATGCCCTTGGAAGTCCGCCAGCTGACGAGTCCCAAATAGGACGAAACGCGC
2.7

Every entry's value here was drawn from patent US20260167959A1.
